- Test system: BT-549 breast
- MEASUREMENT PROTOCOL: NCI tumour cell line growth inhibition, 48 h
Here the recorded TGI is given for each entry.

{"COMPOUND": "COc1cccc(NC(=O)CC(=O)N2N=C(C)C(N=Nc3ccc(C(=O)O)cc3)C2=O)c1 (stereo not given)", "TGI": "> 100 µM"}
{"COMPOUND": "COC(=O)[C@@]1(C)CCC[C@]2(C(=O)O)C3Cc4occc4[C@H](C)[C@@H]3CCC21 (stereo not given in full)", "TGI": "> 100 µM"}
{"COMPOUND": "NC(=S)N/N=C1\\CCCC1C(O)(C(F)(F)Cl)C(F)(F)Cl (stereo not given)", "TGI": "> 10 µM"}
{"COMPOUND": "[N-]=[N+]=CC(=O)COC(=O)c1ccccc1", "TGI": "> 100 µM"}
{"COMPOUND": "O=C(O)c1cccc(/C=C/c2ccccc2)c1", "TGI": "> 100 µM"}
